Can you tell me pEC50 for the items I'm about to list?
# Test system: RSV (Group A, Long Strain)
# Test: Cytopathetic effect (CPE) protection antiviral assay, MTT readout
# Format: cell-based
# Measurement parameters: human respiratory syncytial virus, HEp-2, 96 h, HEp-2 cells, 0.2 MOI RSV, 4 days incubation, protection from CPE (Table 1); read-out: RSV EC50
Give bare numbers, as −log10 of the molar value.

The following compounds have reported results that may help.
{"Compound": "Cc1ccccc1N/C(=N/C#N)N1CCN(c2nc3ccccc3s2)CC1C(C)C (centres unmarked) [Example 1.6]", "pEC50": 5.80}
{"Compound": "CC(C)C1CN(c2cnc3ccccc3n2)CCN1/C(=N\\C#N)Nc1ccccc1F (centres unmarked) [Example 1.21]", "pEC50": 5.68}
{"Compound": "Cc1ccccc1N/C(=N/C#N)N1CCN(c2cnc3cc(F)c(F)cc3n2)CC1C(C)C (centres unmarked) [Example 1.51]", "pEC50": 6.16}
{"Compound": "Cc1ccccc1N/C(=N/C#N)N1CCN(c2nc3ccccc3[nH]2)CC1C(C)C (centres unmarked) [Example 1.9]", "pEC50": 5.39}
{"Compound": "COC(=O)c1cnc(N2CCN(/C(=N\\C#N)Nc3ccccc3Cl)C(C(C)C)C2)cn1 (centres unmarked) [Example 1.2]", "pEC50": 5.95}

// each compound listed below needs its pEC50
1. Cc1ccccc1N/C(=N/C#N)N1CCN(c2nc3ccccc3o2)CC1C(C)C (centres unmarked) [Example 1.4]
2. Cc1ccccc1N/C(=N/C#N)N1CCN(c2cnc3ccccc3n2)CC1C1CCCCC1 (centres unmarked) [Example 1.48]

Result:
1: 5.94; 2: 5.87
